- Experimental Target: 18-kDa translocator protein (TSPO) (Homo sapiens)
- Type: binding
- Conditions: read-out: Ki after block with PBR28 (50 nM), MABs; mixed-affinity binders; unlabeled PBR28 50 nM in each well
pKi: −log10 of the molar value.

{"Molecule": "CCN(CC)C(=O)Cc1c(-c2ccc(OCCCF)cc2)nc2ccc(Cl)cn12 [PBR111]", "pKi": 7.26}

###

- Experimental Target: 18-kDa translocator protein (TSPO) (Homo sapiens, UniProt P30536)
- Assay Summary: Competition binding assay with 3H-PK11195 in human brain tissue membranes
- Conditions: read-out: Ki, HABs; high-affinity binders; brain tissue donors B1–B15; mean ± SEM
- Sequence (P30536 2-169): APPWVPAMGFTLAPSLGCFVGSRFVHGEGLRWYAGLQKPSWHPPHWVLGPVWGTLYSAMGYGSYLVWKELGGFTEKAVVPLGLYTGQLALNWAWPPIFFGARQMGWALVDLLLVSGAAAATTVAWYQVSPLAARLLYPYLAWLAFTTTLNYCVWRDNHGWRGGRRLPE
pKi: −log10 of the molar value.
List of pKi values.
Recorded Metric: pKi

{"Chem Smiles": "CCN(CC)C(=O)Cc1c(-c2ccc(OCCCF)cc2)nc2ccc(Cl)cn12", "Assay Result": 7.81}
{"Chem Smiles": "COc1ccc(OC)c(CN(C(C)=O)c2cc(F)ccc2Oc2ccccc2)c1", "Assay Result": 8.55}
{"Chem Smiles": "COc1ccc(OC)c(CN(C(=O)CF)c2ccccc2Oc2ccccc2)c1", "Assay Result": 8.07}

###

- Experimental Target: 18-kDa translocator protein (TSPO) (Homo sapiens, UniProt P30536)
- Assay type: binding
- Conditions: read-out: Ki after block with PBR28 (50 nM), LABs; low-affinity binders; unlabeled PBR28 50 nM in each well
pKi: −log10 of the molar value.
Recorded Metric: pKi

{"Molecule": "CCN(CC)C(=O)Cc1c(-c2ccc(OCCCF)cc2)nc2ccc(Cl)cn12 [PBR111]", "Recorded Metric": "pKi", "Assay Result": 7.29}

###

- Experimental Target: 18-kDa translocator protein (TSPO) (Homo sapiens, UniProt P30536)
- Type: binding
- Conditions: read-out: Ki, HABs; platelets, healthy volunteers P1–P13; single class of high-affinity sites, 9 of 13
Recorded Metric: Ki (nM)

{"Chem Smiles": "COc1ccccc1CN(C(C)=O)c1cnccc1Oc1ccccc1", "Experimental Target": "18-kDa translocator protein (TSPO) (Homo sapiens, UniProt P30536)", "Assay Result": 3.1}

###

- Experimental Target: 18-kDa translocator protein (TSPO)
- Assay Summary: Competition binding assay with 3H-PK11195 in human brain tissue membranes
- Conditions: read-out: Ki, MABs (single-site model); mixed-affinity binders; brain tissue donors B1–B15; mean ± SEM
pKi: −log10 of the molar value.
List of pKi values.
Recorded Metric: pKi

{"Compound": "CCN(CC)C(=O)Cc1c(-c2ccc(OCCCF)cc2)nc2ccc(Cl)cn12 [PBR111]", "Assay Result": 7.52}
{"Compound": "COc1ccc(OC)c(CN(C(C)=O)c2cc(F)ccc2Oc2ccccc2)c1 [DAA1106]", "Assay Result": 8.32}

src = paper PMC3161826
